All values here come from patent US20140113904A1.

EXPERIMENT_NOTES: Compound 2 concentrations in plasma by LC-MS/MS
Type: in vivo, SCID mice
CONDITION: female, SCID, mouse, plasma, oral, 1 mg/kg, 1 mg/kg BID, 24 h after last dose; read-out: Plasma Concentration (μM) Mean ± SEM
READOUT_TYPE: concentration at 24 h (µM)
Report only the number, with the unit µM understood.

Query: Specify reported concentration at 24 h for the compound shown: CCN1C(=O)CNc2ncc(-c3ccc(-c4nc[nH]n4)nc3C)nc21 [Compound 2]
Response: 0.02

###

EXPERIMENT_NOTES: Compound 2 concentrations in plasma by LC-MS/MS
Type: in vivo, SCID mice
CONDITION: female, SCID, mouse, plasma, po, 2 mg/kg, 2 mg/kg QD, last day; read-out: total plasma AUC0-24 h
READOUT_TYPE: AUC(0-t) (µM·h)
Lab book: enter the figure in µM·h, no units written.

Query: Answer with reported AUC(0-t) of `CCN1C(=O)CNc2ncc(-c3ccc(-c4nc[nH]n4)nc3C)nc21`
Response: 5.93
